So I've got a bunch of compounds here, and I need their inhibition at 30 µM values.
# System: MRC-5
# assay summary: MTT assay, non-cancerous fibroblasts MRC-5
# Type: cell-based, human
# setup conditions: Homo sapiens, MRC5; MRC-5, 30 μM, 72 h; read-out: Growth inhibition (%) ± SEM
Numbers only here, please. The scale is %.

Ask: Recorded inhibition at 30 µM for C[C@]12CC[C@H]3[C@@H](CCC4=CC(=O)CC[C@@H]43)[C@@H]1CC[C@H]2Br [Compound 4, 17α-bromo-19-nortestosterone] , please?
Reply: 20.4

Ask: If you can, please state the reported inhibition at 30 µM value of C[C@]12CC[C@H]3[C@@H](CCC4=CC(=O)CC[C@@H]43)[C@@H]1CC[C@H]2I [Compound 5] .
Reply: 13.8

Ask: Fill blank: measured inhibition at 30 µM of the compound C[C@]12CC[C@H]3[C@@H](CCC4=CC(=O)CC[C@@H]43)[C@@H]1CC[C@H]2Cl [Compound 3] is ____.
Reply: 8

Ask: Item C[C@]12CC[C@H]3[C@@H](CCC4=CC(=O)CC[C@@H]43)[C@@H]1CC[C@@H]2O [Compound 1, 19-nortestosterone, reference compound] has what recorded inhibition at 30 µM?
Reply: 11.3

* * *

# System: hTERT-HME1
# assay summary: MTT assay, immortalized mammary gland epithelial cells hTERT-HME1
# Assay type: cell-based, human
# setup conditions: Homo sapiens, hTERT-HME1, 72 h; read-out: calculated IC50 value
assay metric: pIC50
Quick note: pIC50 values are minus log10 of concentrations in mol/L.

Ask: Using the record for C[C@]12CC[C@H]3[C@@H](CCC4=CC(=O)CC[C@@H]43)[C@@H]1CC[C@H]2Cl [Compound 3] , report its pIC50.
Reply: 5.33

* * *

# System: HeLa
# assay summary: MTT antiproliferative assay, HeLa
# Format: cell-based, human
# setup conditions: Homo sapiens, 10 μM, 72 h, read-out: Growth inhibition (%) ± SEM
# Method: Gynecological cancer cell lines, including ovarian (A2780), cervical (HeLa), and breast cancer cell lines (MCF7, T47D, MDA-MB-231, and MDA-MB-361) were purchased from the European Collection of Authenticated Cell Cultures (ECACC, Salisbury, United Kingdom). […] The antiproliferative properties of the compounds were assessed by an MTT assay ([Mosmann, 1983]). […]
I'd be grateful if you could share measured inhibition at 10 µM for these entries.
Please give the number followed by its unit.

Ask: Request - read-out inhibition at 10 µM | tested on HeLa | compound C[C@]12CC[C@H]3[C@@H](CCC4=CC(=O)CC[C@@H]43)[C@@H]1CC[C@H]2Cl
Reply: 95.9%

Ask: For the record C[C@]12CC[C@H]3[C@@H](CCC4=CC(=O)CC[C@@H]43)[C@@H]1CC[C@H]2O , what value of inhibition at 10 µM is listed for HeLa?
Reply: 28.1%

Ask: Request body: readout inhibition at 10 µM, system HeLa, query C[C@]12CC[C@H]3[C@@H](CCC4=CC(=O)CC[C@@H]43)[C@@H]1CC[C@H]2OC(=O)c1ccc([N+](=O)[O-])cc1[N+](=O)[O-] . Return the value.
Reply: 32%

Ask: Field: inhibition at 10 µM (HeLa). Entry: C[C@]12CC[C@H]3[C@@H](CCC4=CC(=O)CC[C@@H]43)[C@@H]1CC[C@H]2OC(=O)c1cc([N+](=O)[O-])cc([N+](=O)[O-])c1
Reply: 26.6%

* * *

# target entity: human androgenic receptor (Homo sapiens, UniProt P10275)
# Sequence (P10275 whole entry): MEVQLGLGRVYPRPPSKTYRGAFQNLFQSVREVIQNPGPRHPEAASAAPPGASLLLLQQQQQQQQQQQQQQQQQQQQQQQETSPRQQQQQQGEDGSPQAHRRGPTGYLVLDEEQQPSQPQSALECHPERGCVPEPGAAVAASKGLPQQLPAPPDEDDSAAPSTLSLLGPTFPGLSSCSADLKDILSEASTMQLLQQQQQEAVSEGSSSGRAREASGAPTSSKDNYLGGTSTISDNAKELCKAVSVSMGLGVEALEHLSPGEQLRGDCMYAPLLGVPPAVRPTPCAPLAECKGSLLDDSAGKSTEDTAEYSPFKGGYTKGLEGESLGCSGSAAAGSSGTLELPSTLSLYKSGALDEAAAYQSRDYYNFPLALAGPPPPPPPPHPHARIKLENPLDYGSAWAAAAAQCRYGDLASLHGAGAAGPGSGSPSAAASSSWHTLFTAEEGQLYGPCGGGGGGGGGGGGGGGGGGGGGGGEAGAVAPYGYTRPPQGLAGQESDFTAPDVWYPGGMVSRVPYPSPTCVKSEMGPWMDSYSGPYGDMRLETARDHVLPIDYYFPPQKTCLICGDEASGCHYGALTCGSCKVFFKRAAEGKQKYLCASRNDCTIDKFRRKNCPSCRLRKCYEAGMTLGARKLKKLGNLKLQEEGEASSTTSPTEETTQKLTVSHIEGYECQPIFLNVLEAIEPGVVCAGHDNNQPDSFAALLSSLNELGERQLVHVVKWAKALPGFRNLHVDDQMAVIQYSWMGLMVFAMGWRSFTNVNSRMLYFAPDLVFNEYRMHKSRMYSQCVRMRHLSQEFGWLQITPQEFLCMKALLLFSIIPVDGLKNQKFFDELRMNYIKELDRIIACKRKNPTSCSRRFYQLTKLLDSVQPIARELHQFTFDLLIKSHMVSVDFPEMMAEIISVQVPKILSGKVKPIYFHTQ
# assay summary: Yeast-based androgenic reporter assay, agonistic
# setup conditions: read-out: Calculated EC50 values, androgenic activity
assay metric: EC50

Ask: Would you kindly share the measured EC50 for C[C@]12CC[C@H]3[C@@H](CCC4=CC(=O)CC[C@@H]43)[C@@H]1CC[C@H]2Cl ?
Reply: 3.8 µM

This collection of values is drawn from paper PMC6072853.
